The origin of these recorded values is the supplement of paper PMC9112550.

Tested on: Escherichia coli TOP10;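 note: peptides expressed intracellularly from a pBAD plasmid library in pooled LB shake-flask culture, induced with 0.3% L-arabinose, DNA abundance read by NGS, three biological replicates, DESeq2 with apeglm shrinkage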
Experiment: shrunken log2 fold change of peptide-encoding DNA abundance (4.5 h post-induction vs induction); higher = less antimicrobial activity (less host growth inhibition)
Settings: time post-induction: 4.5 h; library: site-saturation at positions 5, 18, 19, 20
Decide by shrunken log2 fold change: equal to or exceeding -0.1 means 1.0, less means 0.0.

1. RRIRKRPPRLPRPRPRPYTAPRP    0.0
2. RRIRRRPPRLPRPRPRPIHGPRP    0.0
3. RRIRTRPPRLPRPRPRPSGYPRP    0.0
4. RRIRCRPPRLPRPRPRPIFEPRP    1.0
5. RRIRVRPPRLPRPRPRPVRYPRP    0.0
6. RRIRQRPPRLPRPRPRPASEPRP    1.0
7. RRIRIRPPRLPRPRPRPFWYPRP    1.0
8. RRIRFRPPRLPRPRPRPETMPRP    1.0
9. RRIRKRPPRLPRPRPRPGIEPRP    1.0
10. RRIRGRPPRLPRPRPRPGKTPRP    1.0
11. RRIRVRPPRLPRPRPRPWIYPRP    1.0
12. RRIRHRPPRLPRPRPRPKRSPRP    1.0
13. RRIRERPPRLPRPRPRPCKSPRP    1.0
14. RRIRMRPPRLPRPRPRPTMAPRP    1.0
15. RRIRQRPPRLPRPRPRPQFFPRP    0.0
